This collection of values is drawn from the supplement of paper PMC9170038.

Reported apparent KD of MS2 coat protein values are given for each entry in this list.
Test system: MS2 coat protein
Test: apparent KD of MS2 coat protein, switch OFF state (with FMN for OFF switches, without FMN for ON switches); designed switch direction (-1 OFF switch, 1 ON switch): -1; higher = weaker reporter binding
Conditions: FMN input: 0 or 200 uM; Eterna round: R93 (includes R88 designs)
Value Kind: apparent KD of MS2 coat protein (nM)

[[record]]
sequence_data = "AAAAAGUGAGGAUAUACGCUGAAGAGAAGACACAACCAGGCGUAGAAGGCACAUGAGGAUCACCCAUGUACAAA [Ex4 Malc#8]"
experimental_result = 27.3

[[record]]
sequence_data = "AGUCAUACAGGAUAUACAUGAGGAUCACCCAUGUUUAUCCUAAAAAGGUGAUCCUCAUGUAGAAGGGUAUGACA [EX3 210: Super Stable 10]"
experimental_result = 16.6

[[record]]
sequence_data = "AACAGUACAGGAUAUACAUGAGGAUCACCCAUGUGAAAAUUAAGUGGAGAACCACAAUGUAGAAGGGUACUGGA [Mat - Exclusion 3 - Eli mod - D48]"
experimental_result = 57.3

[[record]]
sequence_data = "AGAAAGUCAGGAUAUGCGAAGGCGUCUGAUAGACGAGGCUAGCAGAAGGGACAUGAGGAUCACCCAUGUGAAAA [Mat - Exclusion 4 - Eli mod - D86]"
experimental_result = 133


----------
Test system: MS2 coat protein
Experiment: apparent KD of MS2 coat protein, switch ON state; designed switch direction (-1 OFF switch, 1 ON switch): 1; higher = weaker reporter binding
Conditions: FMN input: 0 or 200 uM; Eterna round: R93 (includes R88 designs)
Value Kind: apparent KD of MS2 coat protein (nM)

[[record]]
sequence_data = "CGAAGACAUGAGGAUCACCCAUGUCGUCGUAACAGAGGAUAUGGGAACGCCAAGGGCGCAUCAGAAGGCUGAAAAC [Gediaton]"
test_target = "MS2 coat protein"
value_kind = "apparent KD of MS2 coat protein"
experimental_result = 16.2

[[record]]
sequence_data = "AAAAAAAAUGUGUAGGAUAUCAGUAAAAAUACAUGAGGAUCACCCAUGUUCAAAAAAAAAAAAACUGAGAAGGACACGGAUGGUCC [Design 1]"
test_target = "MS2 coat protein"
value_kind = "apparent KD of MS2 coat protein"
experimental_result = 35.5

[[record]]
sequence_data = "AAAUUACAUGAGGAUCACCCAUGUAGCGACGUGACAGGAUAUGUGGGUGAAAAUAGCAUGACAGAAGGGUCCCGUA [SameState1 Malc#40]"
test_target = "MS2 coat protein"
value_kind = "apparent KD of MS2 coat protein"
experimental_result = 57.8

[[record]]
sequence_data = "AUAAAUAAAAUCAAGGAUAUCCAAAAAAAAACAUGAGGAUCACCCAUGUAAAAGAAAAUAAAAUGGGAGAAGGUGAAAAAUAAAU [SS2 M 6]"
test_target = "MS2 coat protein"
value_kind = "apparent KD of MS2 coat protein"
experimental_result = 39.4

[[record]]
sequence_data = "AACAAUCUAUCUGAGGAUAUAUGUCAAAAGACAUGAGGAUCACCCAUGUAAAAACAUGAAAAAACAUAGAAGGCAGAUAGAUUGA [SS2: 1134]"
test_target = "MS2 coat protein"
value_kind = "apparent KD of MS2 coat protein"
experimental_result = 41.5

[[record]]
sequence_data = "AGAAAACAUGAGGAUCACCCAUGUAGAAAUAUGGGAGGAUAUACAAAGACGAAAGUCAAGGUAGAAGGCCUAAAGA [Mat - Same State 1 - Meechl mod - D124]"
test_target = "MS2 coat protein"
value_kind = "apparent KD of MS2 coat protein"
experimental_result = 20

[[record]]
sequence_data = "AAAUAACAUGCGCAGGAUAUGAGACCGAUAACAUGAGGAUCACCCAUGUUAAGGAAGAAAUAAAAUCAGAAGGGUGGGUGGACCU [Aatteri]"
test_target = "MS2 coat protein"
value_kind = "apparent KD of MS2 coat protein"
experimental_result = 25.7

[[record]]
sequence_data = "AAUCCAAAUAGUUAGGAUAUGGGAAUUAAGACAUGAGGAUCACCCAUGUCAUUAAAACAAGUUAACCAGAAGGGACAGGGUGAAA [JR_SS002_Sub208]"
test_target = "MS2 coat protein"
value_kind = "apparent KD of MS2 coat protein"
experimental_result = 14.7

[[record]]
sequence_data = "AAAAGACAUGAGGAUCACCCAUGUCAAAAGACAUGAGGAUAUGUACAGACUUCGGUCUGUACAGAAGGCAUGAAAA [SS1 - 1066]"
test_target = "MS2 coat protein"
value_kind = "apparent KD of MS2 coat protein"
experimental_result = 13.8

[[record]]
sequence_data = "AGGAAACAUGAGGAUCACCCAUGUAUAAAAAUGGAAGGAUAUACUAAGACGAAAGUCAUAGUAGAAGGUUCAAAAA [76%, Meechl, 9]"
test_target = "MS2 coat protein"
value_kind = "apparent KD of MS2 coat protein"
experimental_result = 13.1

[[record]]
sequence_data = "AACAUACAUGAGGAUCACCCAUGUUCCGGCAGGUCAGGAUAUUUAUCGAAUGAGUUCUAGAAAGAAGGGACAUAAA [JR_SS001_Sub008]"
test_target = "MS2 coat protein"
value_kind = "apparent KD of MS2 coat protein"
experimental_result = 45.8

[[record]]
sequence_data = "AAAAAAAAAAAUAAGGAUAUGUGAUCGGUGACAUGAGGAUCACCCAUGUAAGGCCUCCGGGACGGGCAGAAGGUAUAAAAAAAAA [Same State2-III]"
test_target = "MS2 coat protein"
value_kind = "apparent KD of MS2 coat protein"
experimental_result = 491

[[record]]
sequence_data = "AUAUAUAAAAGAUAGGAUAUACUAAAAUAAACAUGAGGAUCACCCAUGUAAAAAAAGAAACUCAUGUAGAAGGAUCAUAUAUAUA [ss2 7th]"
test_target = "MS2 coat protein"
value_kind = "apparent KD of MS2 coat protein"
experimental_result = 46.5

[[record]]
sequence_data = "ACAAAACAUGAGGAUCACCCAUGUAUAAAUAUAACAGGAUAUGGGACUGCCGAUUAGGCACCAGAAGGGUUUUCAC [Atearve]"
test_target = "MS2 coat protein"
value_kind = "apparent KD of MS2 coat protein"
experimental_result = 20.8

[[record]]
sequence_data = "AAGAAACAUGAGGAUCACCCAUGUAAUAAUAUGGGAGGAUAUACAAGGACAAUAGUCAAGGUAGAAGGCCUAAGAA [Mat - Same State 1 - Meechl mod - D142]"
test_target = "MS2 coat protein"
value_kind = "apparent KD of MS2 coat protein"
experimental_result = 26.7

[[record]]
sequence_data = "AAAAAACAUGAGGAUCACCCAUGUAAAAAAAUCGCAGGAUAUAAGGUCGCGAAAGCGACCUUAGAAGGGCGAUCCU [Louisiana 1 - Jieux - Same State 1]"
test_target = "MS2 coat protein"
value_kind = "apparent KD of MS2 coat protein"
experimental_result = 46.3

